System: A549 lung cell carcinoma
method.summary: Relative colony forming efficiency (Example 17, Table 13)
Format: cell-based, human
conditions.used: averages of 2-8 determinations
Oligonucleotides are written 5' to 3', each unit as a sugar letter and its base; * is a phosphorothioate linkage, no mark a phosphodiester; rarer units and linkages stand in square brackets, end groups in braces. Plain capitals give the bases only. d = 2'-deoxy (DNA)
Values of Reduced relative colony forming efficiency, A549 (% inhibition of colony forming ability) greater than or equal to 80% map to fulfilled; values below map to not fulfilled.

Use the examples below as a reference point.
{"columns": ["substance", "group.label"],
 "data": [
  ["TCAGCATCCAAGGTAAAAGA (antisense dT*dC*dA*dG*dC*dA*dT*dC*dC*dA*dA*dG*dG*dT*dA*dA*dA*dA*dG*dA) [AS-II-1338-20]", "not fulfilled"],
  ["GAAGCCATAGAAACAGCGGG (antisense dG*dA*dA*dG*dC*dC*dA*dT*dA*dG*dA*dA*dA*dC*dA*dG*dC*dG*dG*dG) [AS-II-667-20]", "not fulfilled"],
  ["CACACAACCTACTTACACCA (antisense dC*dA*dC*dA*dC*dA*dA*dC*dC*dT*dA*dC*dT*dT*dA*dC*dA*dC*dC*dA) [AS-II-2372-20]", "fulfilled"],
  ["TTCATGGTGTGGCTAGTTGG (antisense dT*dT*dC*dA*dT*dG*dG*dT*dG*dT*dG*dG*dC*dT*dA*dG*dT*dT*dG*dG) [AS-II-1438-20]", "not fulfilled"],
  ["GAGCAGCCAGGACAGGACGG (antisense dG*dA*dG*dC*dA*dG*dC*dC*dA*dG*dG*dA*dC*dA*dG*dG*dA*dC*dG*dG) [AS-II-151-20]", "fulfilled"]
]}

Inquiry: Please indicate if the recorded Reduced relative colony forming efficiency, A549 (% inhibition of colony forming ability) for GCAAAGAAAGCCAGAACATG (antisense dG*dC*dA*dA*dA*dG*dA*dA*dA*dG*dC*dC*dA*dG*dA*dA*dC*dA*dT*dG) [AS-II-579-20] meets or exceeds 80%.
Reply text: fulfilled

Inquiry: And the next one, AS-II-134220 (antisense dG*dA*dA*dG*dT*dC*dA*dG*dC*dA*dT*dC*dC*dA*dA*dG*dG*dT*dA*dA) ?
Reply text: not fulfilled

Entry source: patent US20080311126A1
